System: XF498
assay info: Cytotoxicity against human XF498 cells
Format: functional
conditions used: read-out: ED50 (the source's name)
Record form. Attribute: EC50. Fill in for each entry.
Dear colleague, please return just the value in µg/mL, with no unit written.

So what does the record say about EC50 for C#CC(O)/C=C/CCCCCCC#CC/C=C/CCCCCCCCC/C=C/C(O)C#C (configuration not stated) ? 1.2

Look up EC50: C#C/C=C/[C@@H](O)CCCCCCCCC/C=C/CC#CCCCCCC/C=C/[C@H](O)C#C [DIDEOXYPETROSYNOL E] 0.6

Entry under review: COc1cccc2c1C(=O)c1c(O)c3c(c(O)c1C2=O)C[C@@](O)(C(=O)CO)C[C@@H]3O[C@H]1C[C@H](N)[C@H](O)[C@H](C)O1 . Reported EC50? 0.2

Can you look up the measured EC50 of C#C/C=C\CCCCCCCCCCCCCC/C=C/CCCC/C=C/CC/C=C/C#C[C@@H](O)C#CCCCCCC/C=C/[C@H](O)C#C for me? 1.7

// query EC50 value for entry C#C/C=C\CCCCCCCCCCCCCC/C=C/CCCC/C=C/CCCCC#C[C@@H](O)C#CCCCCCC/C=C/[C@H](O)C#C 1.7

Source of measurements: ChEMBL document CHEMBL1141820
